So I've got a bunch of molecules here, and I need their IC50 values.
# Experimental System: human adrenergic-α2B receptor (Homo sapiens, UniProt P18089)
# Construct: expressed in transfected cells; membrane preparation
# Sequence (P18089 whole entry): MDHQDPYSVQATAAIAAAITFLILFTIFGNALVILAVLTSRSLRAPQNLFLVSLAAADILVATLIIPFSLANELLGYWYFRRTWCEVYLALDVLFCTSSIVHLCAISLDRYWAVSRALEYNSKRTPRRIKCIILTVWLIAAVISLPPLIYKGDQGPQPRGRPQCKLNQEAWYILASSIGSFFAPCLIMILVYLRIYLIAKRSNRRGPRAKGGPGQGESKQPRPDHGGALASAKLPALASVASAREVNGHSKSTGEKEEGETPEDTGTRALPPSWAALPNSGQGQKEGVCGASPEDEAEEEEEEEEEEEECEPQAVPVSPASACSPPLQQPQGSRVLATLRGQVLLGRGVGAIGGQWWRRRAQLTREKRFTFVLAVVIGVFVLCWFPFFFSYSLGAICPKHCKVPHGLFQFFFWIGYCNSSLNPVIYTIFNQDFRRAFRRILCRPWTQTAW
# Assay Protocol: Radioligand binding experiment for α2B-adrenoceptor ([3H]-raulwolscine competition, CHO cell membranes)
# Assay Conditions: [3H]raulwolscine 1 nM, membranes of CHO cells transfected with human α2B receptor; read-out: pIC50 α2B (converted)
Numbers only, in nM.

Sample answers from the record:
- Smiles String: "CC(C)N1CCc2cc(-n3cnn(CCNCCOc4ccccc4)c3=O)ccc2C1"
  Measurement Unit: "nM"
  IC50: 794
- Smiles String: "O=c1n(-c2ccc3c(c2)CCNC3)cnn1CCNCCOc1ccccc1"
  Measurement Unit: "nM"
  IC50: 251
- Smiles String: "O=c1n(CC2CCN(CCOc3ccccc3)CC2)nnn1-c1ccc(CN2CCOCC2)cc1"
  Measurement Unit: "nM"
  IC50: 79.4
- Smiles String: "O=c1n(-c2ccc(CN3CCOCC3)cc2)cnn1CCNCCOc1ccccc1"
  Measurement Unit: "nM"
  IC50: 251

Now turn to the next molecule.
**Q:** Which IC50 is reported for this molecule? `O=c1n(-c2ccc(CN3CCN(c4ccccc4)CC3)cc2)cnn1CCNCCOc1ccccc1`
**A:** 200
